Data credit: patent US20160185837A1

- system: T1, human GIP receptor (human, UniProt P48546 22-466)
- T1 sequence (looked up): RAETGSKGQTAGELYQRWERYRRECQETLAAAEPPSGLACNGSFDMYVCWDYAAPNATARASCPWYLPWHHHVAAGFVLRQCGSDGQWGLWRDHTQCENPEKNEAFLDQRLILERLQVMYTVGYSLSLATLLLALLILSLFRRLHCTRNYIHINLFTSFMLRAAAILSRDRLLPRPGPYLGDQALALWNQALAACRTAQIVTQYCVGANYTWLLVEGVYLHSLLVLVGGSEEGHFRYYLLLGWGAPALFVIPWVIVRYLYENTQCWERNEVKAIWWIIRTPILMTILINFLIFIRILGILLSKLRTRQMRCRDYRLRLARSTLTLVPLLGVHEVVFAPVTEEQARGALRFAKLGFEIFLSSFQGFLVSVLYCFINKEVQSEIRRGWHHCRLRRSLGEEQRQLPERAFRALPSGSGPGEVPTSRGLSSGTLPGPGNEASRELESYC
- protocolDetails: cell-based or functional assay
Hi there, I'd appreciate the recorded cAMP EC50, Batch 2 for every entry that follows.
Write the number in nM without appending the unit.

Please report the recorded cAMP EC50, Batch 2 for IP325 (Fc fusion) YSEGTFTSDYSKLLEEEAVRLFIEWLVKGPGGGGGSGGGGSGGGGSGGGGSGGGGSGGGGSGGGGSGGGGSA .
0.018

Check IP292 (Fc fusion) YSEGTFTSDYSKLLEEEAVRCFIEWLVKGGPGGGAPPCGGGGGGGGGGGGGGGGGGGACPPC too.
0.046

Please give the result for IP243 (Fc fusion) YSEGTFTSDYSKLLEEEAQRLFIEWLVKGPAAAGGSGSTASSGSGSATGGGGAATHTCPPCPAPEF too.
0.0069
